measurement context: in acetone, 288.15 K
recorded metric: solubility (mole fraction)

O=Cc1ccc([N+](=O)[O-])cc1 ... 0.0851

---

measurement context: in toluene, 288.15 K
recorded metric: solubility (mole fraction)

O=Cc1ccc([N+](=O)[O-])cc1 ... 0.0366

---

measurement context: in n-propanol, 303.15 K
recorded metric: solubility (mole fraction)

O=Cc1ccc([N+](=O)[O-])cc1 ... 0.0272

---

measurement context: in 2-butanone, 273.15 K
recorded metric: solubility (mole fraction)

O=Cc1ccc([N+](=O)[O-])cc1 ... 0.0367

---

measurement context: in toluene, 278.15 K
recorded metric: solubility (mole fraction)

O=Cc1ccc([N+](=O)[O-])cc1 ... 0.0239

---

measurement context: in DMF, 273.15 K
recorded metric: solubility (mole fraction)

O=Cc1ccc([N+](=O)[O-])cc1 ... 0.104

---

measurement context: in methanol, 278.15 K
recorded metric: solubility (mole fraction)

O=Cc1ccc([N+](=O)[O-])cc1 ... 0.0323

---

measurement context: in 2-butanone, 288.15 K
recorded metric: solubility (mole fraction)

O=Cc1ccc([N+](=O)[O-])cc1 ... 0.0689

---

measurement context: in isopropanol, 298.15 K
recorded metric: solubility (mole fraction)

O=Cc1ccc([N+](=O)[O-])cc1 ... 0.00703

---

measurement context: in n-propanol, 293.15 K
recorded metric: solubility (mole fraction)

O=Cc1ccc([N+](=O)[O-])cc1 ... 0.0216

---

measurement context: in acetone, 293.15 K
recorded metric: solubility (mole fraction)

O=Cc1ccc([N+](=O)[O-])cc1 ... 0.107

---

measurement context: in DMF, 303.15 K
recorded metric: solubility (mole fraction)

O=Cc1ccc([N+](=O)[O-])cc1 ... 0.213

---

measurement context: in acetone, 283.15 K
recorded metric: solubility (mole fraction)

O=Cc1ccc([N+](=O)[O-])cc1 ... 0.0662

---

measurement context: in 2-butanone, 303.15 K
recorded metric: solubility (mole fraction)

O=Cc1ccc([N+](=O)[O-])cc1 ... 0.122

---

measurement context: in acetone, 303.15 K
recorded metric: solubility (mole fraction)

O=Cc1ccc([N+](=O)[O-])cc1 ... 0.166

---

measurement context: in methanol, 283.15 K
recorded metric: solubility (mole fraction)

O=Cc1ccc([N+](=O)[O-])cc1 ... 0.0398

---

measurement context: in acetonitrile, 278.15 K
recorded metric: solubility (mole fraction)

O=Cc1ccc([N+](=O)[O-])cc1 ... 0.0351

---

measurement context: in methanol, 288.15 K
recorded metric: solubility (mole fraction)

O=Cc1ccc([N+](=O)[O-])cc1 ... 0.0488

---

measurement context: in DMF, 293.15 K
recorded metric: solubility (mole fraction)

O=Cc1ccc([N+](=O)[O-])cc1 ... 0.17

---

measurement context: in acetonitrile, 283.15 K
recorded metric: solubility (mole fraction)

O=Cc1ccc([N+](=O)[O-])cc1 ... 0.0471

---

measurement context: in methanol, 293.15 K
recorded metric: solubility (mole fraction)

O=Cc1ccc([N+](=O)[O-])cc1 ... 0.0596

---

measurement context: in n-propanol, 278.15 K
recorded metric: solubility (mole fraction)

O=Cc1ccc([N+](=O)[O-])cc1 ... 0.0152

---

measurement context: in acetonitrile, 308.15 K
recorded metric: solubility (mole fraction)

O=Cc1ccc([N+](=O)[O-])cc1 ... 0.161

---

measurement context: in DMF, 283.15 K
recorded metric: solubility (mole fraction)

O=Cc1ccc([N+](=O)[O-])cc1 ... 0.135

---

measurement context: in n-propanol, 308.15 K
recorded metric: solubility (mole fraction)

O=Cc1ccc([N+](=O)[O-])cc1 ... 0.0312

---

measurement context: in isopropanol, 278.15 K
recorded metric: solubility (mole fraction)

O=Cc1ccc([N+](=O)[O-])cc1 ... 0.00399

---

measurement context: in n-butanol, 278.15 K
recorded metric: solubility (mole fraction)

O=Cc1ccc([N+](=O)[O-])cc1 ... 0.0128

---

measurement context: in n-butanol, 303.15 K
recorded metric: solubility (mole fraction)

O=Cc1ccc([N+](=O)[O-])cc1 ... 0.0225

---

measurement context: in ethanol, 313.15 K
recorded metric: solubility (mole fraction)

O=Cc1ccc([N+](=O)[O-])cc1 ... 0.0498

---

measurement context: in 2-butanone, 293.15 K
recorded metric: solubility (mole fraction)

O=Cc1ccc([N+](=O)[O-])cc1 ... 0.0836

---

measurement context: in acetone, 308.15 K
recorded metric: solubility (mole fraction)

O=Cc1ccc([N+](=O)[O-])cc1 ... 0.202

---

measurement context: in methanol, 308.15 K
recorded metric: solubility (mole fraction)

O=Cc1ccc([N+](=O)[O-])cc1 ... 0.108

---

measurement context: in toluene, 308.15 K
recorded metric: solubility (mole fraction)

O=Cc1ccc([N+](=O)[O-])cc1 ... 0.0802

---

measurement context: in DMF, 298.15 K
recorded metric: solubility (mole fraction)

O=Cc1ccc([N+](=O)[O-])cc1 ... 0.192

---

measurement context: in acetonitrile, 273.15 K
recorded metric: solubility (mole fraction)

O=Cc1ccc([N+](=O)[O-])cc1 ... 0.0262

---

measurement context: in isopropanol, 283.15 K
recorded metric: solubility (mole fraction)

O=Cc1ccc([N+](=O)[O-])cc1 ... 0.00451

---

measurement context: in n-propanol, 288.15 K
recorded metric: solubility (mole fraction)

O=Cc1ccc([N+](=O)[O-])cc1 ... 0.019

---

measurement context: in toluene, 303.15 K
recorded metric: solubility (mole fraction)

O=Cc1ccc([N+](=O)[O-])cc1 ... 0.0657

---

measurement context: in DMF, 288.15 K
recorded metric: solubility (mole fraction)

O=Cc1ccc([N+](=O)[O-])cc1 ... 0.152

---

measurement context: in ethyl acetate, 308.15 K
recorded metric: solubility (mole fraction)

O=Cc1ccc([N+](=O)[O-])cc1 ... 0.126

---

measurement context: in 2-butanone, 308.15 K
recorded metric: solubility (mole fraction)

O=Cc1ccc([N+](=O)[O-])cc1 ... 0.147

---

measurement context: in methanol, 298.15 K
recorded metric: solubility (mole fraction)

O=Cc1ccc([N+](=O)[O-])cc1 ... 0.0731

---

measurement context: in ethyl acetate, 288.15 K
recorded metric: solubility (mole fraction)

O=Cc1ccc([N+](=O)[O-])cc1 ... 0.0591

---

measurement context: in methanol, 313.15 K
recorded metric: solubility (mole fraction)

O=Cc1ccc([N+](=O)[O-])cc1 ... 0.13

---

measurement context: in ethyl acetate, 278.15 K
recorded metric: solubility (mole fraction)

O=Cc1ccc([N+](=O)[O-])cc1 ... 0.0401

---

measurement context: in ethanol, 278.15 K
recorded metric: solubility (mole fraction)

O=Cc1ccc([N+](=O)[O-])cc1 ... 0.0177

---

measurement context: in ethyl acetate, 303.15 K
recorded metric: solubility (mole fraction)

O=Cc1ccc([N+](=O)[O-])cc1 ... 0.106

---

measurement context: in ethanol, 308.15 K
recorded metric: solubility (mole fraction)

O=Cc1ccc([N+](=O)[O-])cc1 ... 0.0422

---

measurement context: in n-butanol, 313.15 K
recorded metric: solubility (mole fraction)

O=Cc1ccc([N+](=O)[O-])cc1 ... 0.0283

---

measurement context: in DMF, 313.15 K
recorded metric: solubility (mole fraction)

O=Cc1ccc([N+](=O)[O-])cc1 ... 0.262

---

measurement context: in n-propanol, 273.15 K
recorded metric: solubility (mole fraction)

O=Cc1ccc([N+](=O)[O-])cc1 ... 0.014

---

measurement context: in acetonitrile, 293.15 K
recorded metric: solubility (mole fraction)

O=Cc1ccc([N+](=O)[O-])cc1 ... 0.0801

---

measurement context: in DMF, 308.15 K
recorded metric: solubility (mole fraction)

O=Cc1ccc([N+](=O)[O-])cc1 ... 0.237

---

measurement context: in ethyl acetate, 313.15 K
recorded metric: solubility (mole fraction)

O=Cc1ccc([N+](=O)[O-])cc1 ... 0.151

---

measurement context: in methanol, 303.15 K
recorded metric: solubility (mole fraction)

O=Cc1ccc([N+](=O)[O-])cc1 ... 0.0884

---

measurement context: in acetonitrile, 288.15 K
recorded metric: solubility (mole fraction)

O=Cc1ccc([N+](=O)[O-])cc1 ... 0.0614

---

measurement context: in acetonitrile, 313.15 K
recorded metric: solubility (mole fraction)

O=Cc1ccc([N+](=O)[O-])cc1 ... 0.199

---

measurement context: in acetone, 313.15 K
recorded metric: solubility (mole fraction)

O=Cc1ccc([N+](=O)[O-])cc1 ... 0.244

---

measurement context: in n-butanol, 283.15 K
recorded metric: solubility (mole fraction)

O=Cc1ccc([N+](=O)[O-])cc1 ... 0.0144
